From: ChEMBL document CHEMBL1128201

- tested-target: Amine oxidase [flavin-containing] B (Rattus norvegicus, UniProt P19643)
- run-description: In vitro inhibitory activity against rat brain Monoamine oxidase B
measurement-name: IC50 (µM)
Write the answer as a number in µM, unit excluded.

Prompt: Field request: IC50 | item: `OCCn1nnc(-c2ccc(OCc3ccccc3Cl)cc2)n1`
Completion: 9

Prompt: // same read-out, input: `COc1ccc(-c2nnn(CCC#N)n2)cc1`
Completion: 37

Prompt: Next up: `N#CCCn1nnc(-c2ccc(OCc3ccccc3)cc2)n1`
Completion: 0.002

Prompt: Likewise for `OCCn1nnc(-c2ccc(-c3ccccc3)cc2)n1` ?
Completion: 0.96

Prompt: // repeat for `OCCn1nnc(-c2ccc(Cl)cc2)n1` and report
Completion: 38

Prompt: Same lookup for `OCCn1nnc(-c2ccc(OCc3ccccc3)cc2)n1` , please.
Completion: 0.03

Prompt: Another molecule to check: `OCCCn1nnc(-c2ccc(-c3ccccc3)cc2)n1`
Completion: 1.36

Prompt: Entry `N#CCCn1nnc(-c2ccc(Cl)cc2)n1` please
Completion: 3.6

Prompt: Could you do the same for `N#CCCn1nnc(-c2ccc(OCc3ccccc3Cl)cc2)n1` , please?
Completion: 0.03

Prompt: Try `OCCCCn1nnc(-c2ccc(-c3ccccc3)cc2)n1` next.
Completion: 9.4

Prompt: One more molecule: `N#CCCn1nnc(-c2ccc(OCc3cccc(Cl)c3)cc2)n1`
Completion: 0.1

Prompt: Next molecule up: `N#CCCCCn1nnc(-c2ccc(-c3ccccc3)cc2)n1`
Completion: 6

====

- tested-target: Amine oxidase [flavin-containing] A (Rattus norvegicus, UniProt P21396)
- Sequence (P21396 whole entry): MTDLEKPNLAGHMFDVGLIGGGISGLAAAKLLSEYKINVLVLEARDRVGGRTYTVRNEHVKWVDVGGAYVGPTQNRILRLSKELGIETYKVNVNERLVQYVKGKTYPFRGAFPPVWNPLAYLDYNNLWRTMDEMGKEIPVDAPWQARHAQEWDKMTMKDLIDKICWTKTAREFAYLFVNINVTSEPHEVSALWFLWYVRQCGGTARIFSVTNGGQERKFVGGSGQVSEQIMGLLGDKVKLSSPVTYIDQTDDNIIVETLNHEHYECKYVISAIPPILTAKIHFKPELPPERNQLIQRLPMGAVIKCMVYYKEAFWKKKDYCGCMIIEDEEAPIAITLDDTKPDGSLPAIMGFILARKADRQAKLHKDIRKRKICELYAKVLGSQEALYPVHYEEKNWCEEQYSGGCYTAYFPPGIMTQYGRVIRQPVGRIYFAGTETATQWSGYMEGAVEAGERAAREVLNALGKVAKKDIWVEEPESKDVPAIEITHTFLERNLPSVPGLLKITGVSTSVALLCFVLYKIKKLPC
- run-description: Ex vivo inhibitory activity against rat brain monoamine oxidase (MAO) type A at a dose of 5 mg/kg administered orally at 1 hr
- Format: functional, organism-based
- Parameters: dose 5 mg/kg, route oral
- assay-context: po
measurement-name: inhibition at 5 mg/kg (%)
Write the answer as a number in %, unit excluded.

Prompt: Query: inhibition at 5 mg/kg; subject: `N#CCCn1nnc(-c2ccc(OCc3cccc(Cl)c3)cc2)n1`
Completion: 18

Prompt: Also `N#CCCn1nnc(-c2ccc(OCc3ccccc3)cc2)n1` , if possible.
Completion: 12

Prompt: Input `OCCn1nnc(-c2ccc(OCc3ccccc3)cc2)n1`
Completion: 4

Prompt: Moving on to `OCCn1nnc(-c2ccc(OCc3cccc(Cl)c3)cc2)n1`
Completion: 15

====

- tested-target: Amine oxidase [flavin-containing] B (Rattus norvegicus, UniProt P19643)
- Sequence (P19643 whole entry): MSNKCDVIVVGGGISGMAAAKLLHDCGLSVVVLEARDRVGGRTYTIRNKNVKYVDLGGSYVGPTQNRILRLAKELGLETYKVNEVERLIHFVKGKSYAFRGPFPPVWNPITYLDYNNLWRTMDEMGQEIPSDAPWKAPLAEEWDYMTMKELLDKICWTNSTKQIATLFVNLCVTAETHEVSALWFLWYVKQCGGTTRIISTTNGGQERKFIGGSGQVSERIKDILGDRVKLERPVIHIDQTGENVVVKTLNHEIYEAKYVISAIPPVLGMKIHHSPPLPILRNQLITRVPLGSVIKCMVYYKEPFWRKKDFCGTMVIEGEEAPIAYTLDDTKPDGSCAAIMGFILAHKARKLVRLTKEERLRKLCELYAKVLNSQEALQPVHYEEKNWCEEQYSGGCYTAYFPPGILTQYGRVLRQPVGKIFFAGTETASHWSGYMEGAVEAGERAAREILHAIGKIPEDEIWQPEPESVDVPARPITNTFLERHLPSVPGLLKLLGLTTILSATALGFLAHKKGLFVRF
- run-description: In vitro inhibitory activity against rat brain Monoamine oxidase B
For each of the molecules below, state its IC50.
Report the figure in µM without appending any unit label.

Prompt: Return reported IC50; argument: `N#CCCn1nnc(-c2ccncc2)n1`
Completion: 30

Prompt: // query: `OCCn1nnc(-c2ccc(OCc3ccccc3I)cc2)n1`
Completion: 0.35

Prompt: Would you kindly repeat that for `COc1ccc2c3c([nH]c2c1)C(C)=NCC3` ?
Completion: 150

Prompt: Another molecule to check: `OCCn1nnc(-c2ccccc2)n1`
Completion: 89

Prompt: Note, next up: `N#CCCn1nnc(-c2ccc([N+](=O)[O-])cc2)n1`
Completion: 13.4

Prompt: One more molecule: `N#CCCn1nnc(-c2ccc(OCc3ccc(Cl)cc3)cc2)n1`
Completion: 0.08

Prompt: Another molecule: `OCCn1nnc(-c2ccc(OCc3ccc(Cl)cc3)cc2)n1`
Completion: 0.32

Prompt: Field entry: `OCCn1nnc(-c2ccc(OCc3cccc(Cl)c3)cc2)n1`
Completion: 0.2

Prompt: # repeat for `N#CCCn1nnc(-c2ccc(-c3ccccc3)cc2)n1`
Completion: 0.84

====

Please respond with reported IC50 for every item in the list.
- tested-target: Amine oxidase [flavin-containing] B (Rattus norvegicus)
- run-description: In vitro inhibitory activity against rat brain Monoamine oxidase B

Prompt: Which measured IC50 value corresponds to `N#CCCn1nnc(-c2ccccc2)n1` ?
Completion: > 100 µM

Prompt: Another molecule to look at: `OCCn1nnc(-c2ccncc2)n1`
Completion: > 100 µM

Prompt: Lookup `N#CCCn1nnc(-c2ccc(OCc3ccccc3I)cc2)n1`
Completion: > 270 µM

Prompt: Try this molecule next: `COc1ccc(-c2nnn(CCO)n2)cc1`
Completion: > 100 µM
